assay: physchem; settings: pH 7.4 buffer
Using solubility thermodynamic as the sorting value, the categories are lo = under 40 µM, mid = from 40 µM up to 200 µM, hi = 200 µM and over

                                    molecule  qualitative_label
 0  N#CC1(NC(=O)[C@@H]2CCCC[C@H]2C(=O)N2CCc3[nH]c4ccc(Cl)cc4c3C2)CC1                mid
 1  COC[C@H](C)Oc1cc(Oc2ccc(OC)cc2)cc(C(=O)Nc2ccc(C(=O)O)cn2)c1                 hi
 2  CS(=O)(=O)C1(c2cc(N3CCOCC3)nc(-c3cccc4[nH]ccc34)n2)CCOCC1                 lo
 3  O=C(NCc1ccc(OC(F)(F)F)cc1)C1c2ccccc2C(=O)N1C1CCOCC1 (stereo not given)                mid
 4  CCN(C(=O)Cc1ccc(S(C)(=O)=O)cc1)C1CCN(CC[C@@H](c2ccccc2)N2CCN(S(=O)(=O)C(F)(F)F)CC2)CC1                 hi
 5  COc1ccc(Nc2cc(Nc3ccc(OCC(O)CN(C)C)cc3)ncn2)cc1 (stereo not given)                 lo
 6           OCCNCc1cc(Br)ccc1OCc1ccc(Cl)cc1                 hi
 7  O=C(O)C[C@@H]1c2ccccc2C[C@H]1NC(=O)c1cc2sc(Cl)c(Cl)c2[nH]1                 hi
 8  Cc1nc(C)c(-c2ccc([C@H]3CC[C@H](CC(=O)O)CC3)c(Cl)c2)nc1C(N)=O                 hi
 9  O=C(Nc1cccnc1)c1ccc(OCCCN2CCCC2)cc1OCc1ccccc1                 hi
10  COc1cc2ncnc(Nc3ccc(F)c(Cl)c3)c2cc1OCCCN(C)C                 hi
11  C[C@H](CO)Nc1[nH]c(SCc2ccccc2F)nc2nc(=O)sc1-2                 lo
12    Cc1ccc(-c2nn(C(C)(C)C)c3ncnc(N)c23)cc1                 lo
13     CCCCOc1ccc(-c2cc(=O)c3ccccc3[nH]2)cc1                 lo
14  CC(C)c1cc(C(=O)N2Cc3ccc(CN4CCN(C)CC4)cc3C2)c(O)cc1O                mid
15        O=C(Nc1nc2c(=O)[nH]cnc2s1)c1ccccc1                 lo
16        COc1cccc(-c2c[nH]c(-c3ccccc3)n2)c1                 lo
17  Cc1nc(CS(=O)(=O)c2ccc(Cl)cc2)cc(N2CCOCC2)n1                 hi
18  CC1(C)Oc2ncnc(N)c2N=C1c1ccc(C23CC4CC(CC(CC(=O)O)(C4)C2)C3)cc1                mid

---

Catalogue of fraction unbound at 5 h readings, one per entry.
assay: in vitro; conditions: SD, HW or BN, rat, plasma
Experimental Readout: fraction unbound at 5 h

>>> df
                                smiles_data     experimental_readout  observed
0  CC(C)(C)OC(=O)N1CCC(OCc2nc(-c3ccncc3)no2)CC1  fraction unbound at 5 h    0.0752
1  Cn1c(-c2cc(=O)c(O)c[nH]2)nn(S(=O)(=O)NC(=O)N2C[C@H](NC(=O)/C(=N\OC(C)(C)C(=O)O)c3csc(N)n3)C2=O)c1=O  fraction unbound at 5 h    0.0149
2           CN(C)CCC=C1c2ccccc2C=Cc2ccccc21  fraction unbound at 5 h     0.117
3  O=c1[nH]c2c(O)ccc(CCNCCS(=O)(=O)CCCOCCc3ccccc3)c2s1  fraction unbound at 5 h    0.0784

---

assay: physchem; conditions: octan-1-ol/water, pH 7.4, LogD7.4
logD for assorted molecules
Experimental Readout: logD

>>> df
                                smiles_data  experimental_readout  observed
0  C[C@@](CCc1ccc(-c2ccc(Cl)cc2)cc1)(C(=O)NO)S(C)(=O)=O                  logD       2.4
1  CS(=O)(=O)c1cccc(Nc2nccc(Nc3cccc4ccoc34)n2)c1                  logD      3.52
2    CC(=O)c1ccc2[nH]c(-c3cccnc3)cc(=O)c2c1                  logD      1.41
3  CNC(=O)c1ccc(Nc2nccc(-c3cnc(C)n3C(C)C)n2)cc1                  logD      2.69
4  COc1cc(C(=O)NS(=O)(=O)c2ccccc2)ccc1Cn1cnc2ccc(NC(=O)CC3CCCC3)cc21                  logD       0.9

---

test: physchem
// pKa lookup, one value per entry
Experimental Readout: pKa

In [3]: df
Out[3]:
                                   molecule  sign_qualifier  observed
0  N#Cc1cccc(S(=O)(=O)NC[C@@H](O)CN2CCC(Oc3ccc(Cl)c(Cl)c3)CC2)c1               =      10.1
1    Nc1ncnc2c1ncn2CCOCP(=O)(O)O [ADEFOVIR]               =      7.66
2  CCCc1c2c(cc3c(=O)cc(C(=O)O)oc13)CCCC2 [PROCROMIL]               <         2
3  C[C@@H](C(=O)NS(C)(=O)=O)c1ccc(OS(=O)(=O)C(F)(F)F)cc1 [LADARIXIN]               =       3.1
4  Nc1[nH]ncc1-c1cc(Cl)ccc1Oc1cc(F)c(S(=O)(=O)Nc2cscn2)cc1Cl [PF-05089771]               =       6.2

---

test: physchem; conditions: pH 7.4 buffer
Please assign a class to every record based on measured solubility thermodynamic, with ranges bin 0: < 20 µM; bin 1: ≥ 20 µM and < 90 µM; bin 2: ≥ 90 µM

>>> print(df.to_string())
                                   compound  qualitative_label
0                Cc1nc2ccccn2c1-c1ccnc(N)n1              bin 2
1  CNC(=O)Nc1nc2ccc(-c3cncc(S(=O)(=O)NC(C)(C)C)c3)cn2n1              bin 1
2  CCCSc1ccc2nc(NC(=O)OC)[nH]c2c1 [ALBENDAZOLE]              bin 0
3  CCc1nn(C2CCCC2)c2c1CCn1c(-c3cccs3)nnc1-2 [TOFIMILAST]              bin 1
4  COc1cc2ncnc(Nc3cccc(Cl)c3F)c2cc1CN(C)C1(C(N)=O)CCN(C(C)C)CC1              bin 2
5  O=C(Nc1ccc(N2CCOCC2)nc1)c1nnc(Nc2ccc(F)cc2)o1              bin 0
6                O=C(NCCCCc1ccccc1)c1ccccc1              bin 1
7  CCN(C(=O)Cc1ccc(S(C)(=O)=O)cc1)C1CCN(CC[C@@H](c2ccccc2)N2CCN(S(=O)(=O)CC(F)(F)F)CC2)CC1              bin 2
8                 Cc1cnc(NC(=O)Cc2ccccc2)s1              bin 0
9  C[C@H](CN(C)C(=O)CO)Oc1cccc2ncnc(Nc3ccc(OCc4ccccn4)c(Cl)c3)c12              bin 0

---

test: in vitro; conditions: human, plasma, PPB
Experimental Readout: fraction unbound at 5 h

In [3]: df
Out[3]:
                                    compound     experimental_readout  observed
 0  CN(C)c1ccccc1S(=O)(=O)NC(=O)N1CCC(N2CCC(Oc3ccc(Cl)c(Cl)c3)CC2)CC1  fraction unbound at 5 h    0.0175
 1  CCNc1cc(C(=O)N[C@@H](Cc2ccccc2)[C@H](O)CNCc2cccc(C(F)(F)F)c2)c(F)c(N2CCCCS2(=O)=O)c1  fraction unbound at 5 h    0.0119
 2  Cc1ccc(S(=O)(=O)Nc2c(C(=O)N[C@@H](C)C(C)(C)C)c(C)nn2C(C)C)cc1  fraction unbound at 5 h    0.0457
 3      O=C(c1ccccc1)N1CCC(c2nc3ccccc3o2)CC1  fraction unbound at 5 h    0.0457
 4  COc1ccc(C2CNC(=O)C2)cc1OC1CCCC1 (centres undefined)  fraction unbound at 5 h     0.173
 5  CNc1c(Br)cnc2[nH]c(-c3ccc(OCCN4CCOCC4)cc3)nc12  fraction unbound at 5 h    0.0149
 6     CC(C)c1ccc(/C=N/NC(=O)c2ccc(O)cc2)cc1  fraction unbound at 5 h    0.0568
 7  CN(C)CCC1CCN(c2cc(C(=O)NC[C@H]3CC[C@H](CNC(=O)OCC(C)(C)C)CC3)c3ccccc3n2)CC1  fraction unbound at 5 h    0.0139
 8  Cc1nc(C(C)C)c(C(N)=O)nc1-c1ccc([C@H]2CC[C@H](CC(=O)O)CC2)cc1  fraction unbound at 5 h    0.0262
 9  c1cc(-c2ccc3nc(Nc4ccc(OCCN5CCCC5)cc4)ncc3c2)ccn1  fraction unbound at 5 h     0.028
10  Cc1cc(Nc2cncc(N[C@@H](C)c3ncc(F)cn3)n2)n[nH]1  fraction unbound at 5 h    0.0854
11  CCOc1ncc(C)c2c1[C@H](c1ccc(C#N)cc1OC)C(C(N)=O)=C(C)N2  fraction unbound at 5 h    0.0752
12  CCNC(=O)Nc1nc2cc(-c3cccnc3)cc(-c3ncccc3F)c2[nH]1  fraction unbound at 5 h    0.0136
13  CCS(=O)(=O)c1ccc(-c2cc(Cl)ccc2OCC(=O)O)cc1  fraction unbound at 5 h    0.0274
14  N#Cc1ccc(F)c(-c2cc(C(F)(F)F)ccc2OCC(=O)O)c1  fraction unbound at 5 h    0.0293
15  COc1cc(OC)c(S(=O)(=O)N2c3ccccc3CCC2C)cc1NC(=O)COCC(=O)O (centres undefined)  fraction unbound at 5 h     0.266
16  Cc1nn(-c2ccccc2)c(NS(=O)(=O)C2CCCCC2)c1C(=O)N[C@@H](C)C(C)(C)C  fraction unbound at 5 h    0.0149
17      CCNC(=O)Nc1nc2cc(-c3cccnc3)ccc2[nH]1  fraction unbound at 5 h    0.0179
18  COCC[C@H](Oc1ncnc2c1cnn2-c1ccccc1Cl)C(=O)Nc1ccc(C)cn1  fraction unbound at 5 h    0.0457
19  CC(=O)Nc1ccc2c(c1)c(-c1cc(NC3CC3)n3ncc(C#N)c3n1)cn2CCCO  fraction unbound at 5 h    0.0119
20  CCc1cccc2cc(C(O)CNC(C)(C)C)oc12 (centres undefined)  fraction unbound at 5 h    0.0801
21       CNC(=O)c1[nH]cnc1C(=O)Nc1ccc(Cl)cc1  fraction unbound at 5 h    0.0268
22  COc1ccc(-c2c(C(=O)N3CCC[C@H]3CO)cc3cccnn23)cc1  fraction unbound at 5 h      0.11
23  O=C(NCc1ccc(OC(F)(F)F)cc1)C1c2ccccc2C(=O)N1CCc1ccccn1 (centres undefined)  fraction unbound at 5 h    0.0358
24  CO[C@@H]1CN(CCn2c(=O)ccc3ccc(C#N)cc32)CC[C@H]1NCc1ccc2c(n1)NC(=O)CO2  fraction unbound at 5 h     0.276
25  COc1cc(OC)c(S(=O)(=O)N2c3ccccc3CCC2C)cc1NC(=O)Cc1ccnc(F)c1 (centres undefined)  fraction unbound at 5 h    0.0544
26  COc1ccc2ccc(=O)n(CCN3CCC(NCc4cc5c(cn4)OCCO5)CC3)c2c1  fraction unbound at 5 h     0.309
27  Cc1cccc(Oc2cc(S(=O)(=O)N3CCC[C@H](n4cc(C)c(=O)[nH]c4=O)C3)ccc2C(=O)O)c1  fraction unbound at 5 h    0.0568
28  N#Cc1c(-c2ccc(-c3ccncc3Cl)cc2)nc2ccncc2c1O  fraction unbound at 5 h    0.0055
29  [H]/N=C(/N)c1ccc(NCc2nc3cc(C(=O)N(CCC(=O)O)c4ccccn4)ccc3n2C)cc1  fraction unbound at 5 h     0.529
30  CN1CCN(c2ccc3ncc(C(N)=O)c(Nc4cccc(Cl)c4Cl)c3c2)CC1  fraction unbound at 5 h    0.0457
31  Cc1ccc(S(=O)(=O)Nc2c(C(=O)N[C@@H](C)C(C)(C)C)c(C)nn2CC(F)(F)F)cc1  fraction unbound at 5 h    0.0142
32  CN[C@@H](C)C(=O)N[C@H](C(=O)N1CC[C@H]2CC[C@H](NC(=O)c3cccc4ccccc34)[C@H]21)C(C)(C)C  fraction unbound at 5 h     0.016
33  O=c1cc(N2CCOCC2)nc2n(Cc3cccc4ccccc34)ccn12  fraction unbound at 5 h    0.0307
34  COc1cc2c(cc1OC)C(=O)C(CC1CCN(Cc3ccccc3)CC1)C2 (centres undefined)  fraction unbound at 5 h     0.105
35  O=C(CN1CCN(CCC2CCOCC2)CC1)NC12CC3CC(CC(C3)C1)C2  fraction unbound at 5 h     0.529
36  Cc1cc(Nc2nc(N[C@@H](C)c3ccc(F)cn3)cnc2C)[nH]n1  fraction unbound at 5 h      0.16
37  O=C(NS(=O)(=O)c1ccc(Cl)cc1)N1CCC(N2CCC(Oc3ccc(Cl)c(Cl)c3)CC2)CC1  fraction unbound at 5 h     0.329
38  N#Cc1cnn2c(NC3CC3)cc(-n3ccc4ccc(CO)cc43)nc12  fraction unbound at 5 h    0.0191
